Listed here are compounds together with their documented Hibit assay-% inhibition.
- TARGET OF ASSAY: SpCas9 (Streptococcus pyogenes serotype M1)
- Sequence (Q99ZW2 whole entry): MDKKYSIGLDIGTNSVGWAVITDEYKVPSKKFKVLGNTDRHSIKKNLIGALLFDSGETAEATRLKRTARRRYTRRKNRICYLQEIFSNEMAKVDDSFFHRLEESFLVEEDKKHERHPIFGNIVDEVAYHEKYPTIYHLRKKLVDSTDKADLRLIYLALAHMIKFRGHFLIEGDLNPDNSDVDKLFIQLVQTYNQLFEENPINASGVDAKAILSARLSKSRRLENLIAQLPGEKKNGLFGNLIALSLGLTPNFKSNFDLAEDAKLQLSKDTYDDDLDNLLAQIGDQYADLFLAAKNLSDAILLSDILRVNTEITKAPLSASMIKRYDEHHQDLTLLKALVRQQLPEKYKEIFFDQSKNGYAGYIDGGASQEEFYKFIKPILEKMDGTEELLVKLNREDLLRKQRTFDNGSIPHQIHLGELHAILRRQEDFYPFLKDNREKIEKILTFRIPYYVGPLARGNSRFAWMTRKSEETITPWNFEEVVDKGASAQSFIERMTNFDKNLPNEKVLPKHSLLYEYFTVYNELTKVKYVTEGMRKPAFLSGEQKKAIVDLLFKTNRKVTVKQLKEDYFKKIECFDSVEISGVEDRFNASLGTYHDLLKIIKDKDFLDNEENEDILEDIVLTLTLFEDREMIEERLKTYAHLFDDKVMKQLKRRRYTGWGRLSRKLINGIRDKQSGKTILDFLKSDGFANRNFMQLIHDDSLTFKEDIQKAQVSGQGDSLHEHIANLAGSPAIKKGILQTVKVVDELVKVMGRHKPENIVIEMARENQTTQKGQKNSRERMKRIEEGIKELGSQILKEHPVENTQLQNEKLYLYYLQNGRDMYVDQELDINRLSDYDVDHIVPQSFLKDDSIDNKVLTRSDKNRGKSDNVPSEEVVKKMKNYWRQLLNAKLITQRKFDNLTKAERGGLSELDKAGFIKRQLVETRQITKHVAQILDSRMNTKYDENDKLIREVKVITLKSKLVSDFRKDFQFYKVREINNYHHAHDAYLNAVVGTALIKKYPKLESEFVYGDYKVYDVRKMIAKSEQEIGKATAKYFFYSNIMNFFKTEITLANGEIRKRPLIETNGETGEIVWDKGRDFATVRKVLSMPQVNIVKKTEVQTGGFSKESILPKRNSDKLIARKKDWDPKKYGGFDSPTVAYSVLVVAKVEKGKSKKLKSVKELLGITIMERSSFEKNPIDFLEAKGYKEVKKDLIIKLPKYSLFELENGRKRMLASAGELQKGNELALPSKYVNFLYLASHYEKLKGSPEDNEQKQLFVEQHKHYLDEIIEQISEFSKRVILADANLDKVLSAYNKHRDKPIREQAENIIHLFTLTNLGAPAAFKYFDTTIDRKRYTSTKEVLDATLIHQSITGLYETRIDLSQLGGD
- EXPERIMENT: HiBiT knock-in assay, SpCas9, HEK293T cells
- Format: cell-based
ENDPOINT: Hibit assay-% inhibition (%)

INSERT INTO results (smiles_code, reported) VALUES
  ('c1ccc(-c2nnc3sc(-c4cc5ccccc5o4)nn23)nc1', 18.11),
  ('O=C(CCS(=O)(=O)c1ccccc1)Nc1nc(-c2ccncc2)cs1', 72.63),
  ('O=C(CSc1nccn1-c1cccc(F)c1)N1CCN(c2ccc(O)cc2)CC1', 68.25),
  ('COc1ccc(Cc2nnc3sc(Cc4ccc(OC)c(OC)c4)nn23)cc1', 22.01),
  ('NC1=C(c2nc3ccccc3s2)C(=O)CN1N=Cc1ccc(-c2ccc(S(=O)(=O)Nc3ncccn3)cc2)o1', '−12.66'),
  ('O=C(CCS(=O)(=O)c1ccc(Cl)cc1)Nc1nc(-c2ccccn2)cs1', 94.5),
  ('Cc1ccccc1C(=O)Nc1nc2ccc(S(N)(=O)=O)cc2s1', 4.3),
  ('O=C(CCS(=O)(=O)c1ccc(Cl)cc1)Nc1nc(-c2ccncc2)cs1', 97.09);
